Each entry below lists one item and its recorded IC50 value.
- System: HCT-116
- procedure_summary: cells
- settings: Homo sapiens, HCT-116, 72 h
- Description: Antiproliferative activity against human HCT-116 cells assessed as inhibition of cell growth measured after 72 hrs by CCK-8 method
Output spec: scalar in µM, unitless text.

Examples with their reported IC50 follow.
O=C(NCc1ccccc1)C1=CCCN(Cc2ccccc2)C1 | 55.4
O=C(Nc1ccc(Cl)cc1)C1CCCN(C(=O)c2cccc(-c3ccco3)c2)C1 (stereo not given) | 76.5
O=C(NCc1ccc2c(c1)OCO2)C1CCCN(C(=O)c2cc(C(F)(F)F)cc(C(F)(F)F)c2)C1 (stereo not given) | 95.3
O=C(NCCc1ccc(Cl)cc1)C1CCCN(C(=O)c2cc(C(F)(F)F)cc(C(F)(F)F)c2)C1 (stereo not given) | 56.5

Attention now shifts to the item below.
Lab note: measured IC50 of N#Cc1cccc(CN2CCCC(C(=O)NCc3ccc4c(c3)OCO4)C2)c1 (stereo not given) was 50
